- ASSAY SYSTEM: 5-Lipoxygenase enzyme (Rattus norvegicus, UniProt P12527)
- Construct: 5-Lipoxygenase enzyme was prepared as a 10,000g supernatant from RBL-1 cells; endogenous in cells; host or cells: RBL-1 cells (10,000g supernatant)
- METHOD NOTES: RBL-1 5-lipoxygenase screen
- Format: biochemical
- CONDITION SET: 20µM compound; 10,000g supernatant from RBL-1 cells; decrease in formation of 5-HETE and 5,12-diHETE relative to control
MEASURED QUANTITY: inhibition at 20 µM (%)

{"columns": ["MOLECULE", "ASSAY SYSTEM", "MEASURED QUANTITY", "VALUE"],
 "data": [
  ["CCCCCCC#Cc1ccccc1OCCCC(C(=O)O)C(=O)O [Example 57]", "5-Lipoxygenase enzyme (Rattus norvegicus, UniProt P12527)", "inhibition at 20 µM", 54],
  ["CCCCCCC#Cc1ccc(C=C(C(=O)O)C(=O)OC)cc1 [Example 49]", "5-Lipoxygenase enzyme (Rattus norvegicus, UniProt P12527)", "inhibition at 20 µM", 15],
  ["CCCCCC/C=C\\c1ccc(C=C(C(=O)O)C(=O)O)cc1 [Example 64]", "5-Lipoxygenase enzyme (Rattus norvegicus, UniProt P12527)", "inhibition at 20 µM", 49],
  ["CCCCCCC#Cc1ccc(C=C(C(=O)O)C(=O)O)cc1 [Example 50]", "5-Lipoxygenase enzyme (Rattus norvegicus, UniProt P12527)", "inhibition at 20 µM", 16],
  ["CCCCCCCCCCC/C=C\\c1cccc(C=C(C(=O)O)C(=O)O)c1 [Example 63]", "5-Lipoxygenase enzyme (Rattus norvegicus, UniProt P12527)", "inhibition at 20 µM", 82],
  ["CCCCCCCCCCCC#Cc1ccccc1CC(C(=O)O)C(=O)O [Example 28]", "5-Lipoxygenase enzyme (Rattus norvegicus, UniProt P12527)", "inhibition at 20 µM", 63],
  ["CCCCCCCCCCC/C=C\\c1cccc(CC(C(=O)O)C(=O)O)c1 [Example 66]", "5-Lipoxygenase enzyme (Rattus norvegicus, UniProt P12527)", "inhibition at 20 µM", 84],
  ["CCCCCCCCCCCC#Cc1cccc(C=C(C(=O)O)C(=O)O)c1 [Example 51]", "5-Lipoxygenase enzyme (Rattus norvegicus, UniProt P12527)", "inhibition at 20 µM", 25],
  ["CCCCCCCCCCCC#Cc1cccc(CC(C(=O)O)C(=O)O)c1 [Example 52]", "5-Lipoxygenase enzyme (Rattus norvegicus, UniProt P12527)", "inhibition at 20 µM", 51],
  ["CCCCCC/C=C\\c1cccc(OCCCC(C(=O)O)C(=O)O)c1 [Example 69]", "5-Lipoxygenase enzyme (Rattus norvegicus, UniProt P12527)", "inhibition at 20 µM", 44]
]}

* * *

- ASSAY SYSTEM: 5-Lipoxygenase enzyme (Rattus norvegicus)
- Construct: 5-Lipoxygenase enzyme was prepared as a 10,000g supernatant from RBL-1 cells; endogenous in cells; host or cells: RBL-1 cells (10,000g supernatant)
- METHOD NOTES: RBL-1 5-lipoxygenase screen
- Format: biochemical
- CONDITION SET: 50µM compound (cells marked *, footnote: inhibition at 50µM); 10,000g supernatant from RBL-1 cells
- Protocol: 1) RBL-1 5-LIPOXYGENASE SCREEN 5-Lipoxygenase enzyme was prepared as a 10,000g supernatant from RBL-1 cells by the method of Jakschik (Jakschik, B.A., F.F. Sun, L.M.Lee, and M.M. Steinhoff, 1980, Biochem. Biophys. Res.Comm. 95, 103). […] Activity was measured as the percentage of total radioactivity found in 5-HETE and 5,12-diHETE, and inhibition calculated as the decrease in formation of the sum of these two species in compound-treated incubates relative to control incubations.
inhibition at 50 µM listing for selected compounds.

{"columns": ["COMPOUND", "inhibition at 50 µM (%)"],
 "data": [
  ["CCCCCCCCCCCC#Cc1ccccc1C=C(C(=O)O)C(=O)OCC", 60],
  ["CCCCCCC#Cc1cccc(OCCCC(C(=O)O)C(=O)O)c1", 45],
  ["CCCCCCC#Cc1cccc(OCCCC(C(=O)O)C(=O)OCC)c1 (stereo not shown)", 52],
  ["CCCCCCCCCCCC#Cc1ccccc1C=C(C(=O)O)C(=O)O", 55]
]}

* * *

- ASSAY SYSTEM: 5-Lipoxygenase enzyme (Rattus norvegicus, UniProt P12527)
- Construct: 5-Lipoxygenase enzyme was prepared as a 10,000g supernatant from RBL-1 cells; endogenous in cells; host or cells: RBL-1 cells (10,000g supernatant)
- Sequence (P12527 1-673): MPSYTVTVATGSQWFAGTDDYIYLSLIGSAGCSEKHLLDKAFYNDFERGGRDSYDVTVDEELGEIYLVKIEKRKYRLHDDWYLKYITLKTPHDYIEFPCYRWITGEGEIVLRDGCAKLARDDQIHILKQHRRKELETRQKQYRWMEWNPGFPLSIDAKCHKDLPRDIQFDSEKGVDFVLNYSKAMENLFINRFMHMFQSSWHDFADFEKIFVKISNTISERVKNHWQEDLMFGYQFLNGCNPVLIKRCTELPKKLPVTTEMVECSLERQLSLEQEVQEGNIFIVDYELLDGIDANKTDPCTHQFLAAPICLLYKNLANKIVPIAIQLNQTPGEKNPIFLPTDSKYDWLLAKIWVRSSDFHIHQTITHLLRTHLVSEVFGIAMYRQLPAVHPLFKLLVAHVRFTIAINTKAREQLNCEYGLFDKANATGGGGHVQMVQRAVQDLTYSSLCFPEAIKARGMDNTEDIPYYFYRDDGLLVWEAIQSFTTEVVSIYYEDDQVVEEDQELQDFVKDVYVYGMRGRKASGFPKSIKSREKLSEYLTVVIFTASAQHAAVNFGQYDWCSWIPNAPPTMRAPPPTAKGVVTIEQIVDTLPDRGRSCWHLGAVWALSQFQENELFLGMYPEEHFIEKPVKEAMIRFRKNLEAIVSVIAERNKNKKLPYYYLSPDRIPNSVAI
- METHOD NOTES: RBL-1 5-lipoxygenase screen
- Format: biochemical
- CONDITION SET: 20µM compound; 10,000g supernatant from RBL-1 cells; decrease in formation of 5-HETE and 5,12-diHETE relative to control

{"columns": ["COMPOUND", "inhibition at 20 µM (%)"],
 "data": [
  ["CCCCCCC#Cc1ccccc1OCCCC(C(=O)O)C(=O)OCC (stereo not drawn)", 63],
  ["CCCCCC/C=C\\c1cccc(OCCCC(C(=O)O)C(=O)OCC)c1 (stereo not drawn)", 62.5],
  ["CCCCCCCCCCC/C=C\\c1ccccc1C=C(C(=O)O)C(=O)O", 67]
]}

* * *

- ASSAY SYSTEM: cyclo-oxygenase (Bos taurus, UniProt O62664)
- Construct: comprising 0.96mg lyophilised bovine seminal vesicle microsomes; from tissue; host or cells: bovine seminal vesicle microsomes (lyophilised)
- Sequence (O62664 25-600): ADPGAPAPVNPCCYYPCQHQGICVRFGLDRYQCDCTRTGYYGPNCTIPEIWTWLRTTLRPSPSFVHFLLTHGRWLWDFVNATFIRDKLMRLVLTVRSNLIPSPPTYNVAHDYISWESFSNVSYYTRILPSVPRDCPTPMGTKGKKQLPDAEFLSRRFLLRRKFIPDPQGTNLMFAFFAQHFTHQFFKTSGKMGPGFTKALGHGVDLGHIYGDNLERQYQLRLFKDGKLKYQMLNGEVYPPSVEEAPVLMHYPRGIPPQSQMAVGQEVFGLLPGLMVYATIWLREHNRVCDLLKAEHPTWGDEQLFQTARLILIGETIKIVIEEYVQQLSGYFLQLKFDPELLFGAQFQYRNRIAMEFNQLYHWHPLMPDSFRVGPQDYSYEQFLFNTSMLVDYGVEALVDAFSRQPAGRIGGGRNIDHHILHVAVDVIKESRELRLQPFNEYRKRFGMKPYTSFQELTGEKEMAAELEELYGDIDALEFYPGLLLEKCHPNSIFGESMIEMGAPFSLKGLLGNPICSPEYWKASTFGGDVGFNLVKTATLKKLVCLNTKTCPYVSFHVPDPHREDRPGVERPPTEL
- METHOD NOTES: Cyclo-oxygenase screen
- Assay type: biochemical
- CONDITION SET: 50µM compound; bovine seminal vesicle microsomes; decrease in prostaglandin formation
Measured inhibition at 50 µM, listed per entry.

{"columns": ["MOLECULE", "inhibition at 50 µM"],
 "data": [
  ["CCCCCC/C=C\\c1cccc(OCCCC(C(=O)O)C(=O)OCC)c1 (stereo not drawn) [Example 68]", "40%"],
  ["CCCCCCCCCCCC#Cc1ccccc1C=C(C(=O)O)C(=O)O [Example 25]", "59%"],
  ["CCCCCCCCCCCC#Cc1ccccc1C=C(C(=O)O)C(=O)OCC [Example 24]", "70%"],
  ["CCCCCCC#Cc1cccc(OCCCC(C(=O)O)C(=O)O)c1 [Example 58]", "38%"],
  ["CCCCCCCCCCCC#Cc1ccc(C=C(C(=O)O)C(=O)O)cc1 [Example 27]", "59%"],
  ["CCCCCCCCCCCC#Cc1ccccc1CC(C(=O)O)C(=O)O [Example 28]", "76%"]
]}
